Hey, just so you know, these numbers are from a melting point compilation (Tetko et al.; mined from patent text by program, amines drawn as free bases though some values may be those of a salt).

melting point by entry:

Answered cases to consult:
## Input Please give the measured melting point for this compound: CC(C)OC(=O)Cn1c(=O)n(C)c(=O)n(-c2cc(N=c3sc(=O)n4n3CCCC4)c(F)cc2Cl)c1=O
## Output 97 to 107 °C

## Input Please give the measured melting point for this compound: CCCCCCCCCCCCCCCCCCOC(=O)c1cc(C(=O)OCCCCCCCCCCCCCCCCCC)c(C(=O)O)cc1C(=O)O
## Output 133 to 137 °C

## Input Please give the measured melting point for this compound: CC(CN1C(=O)c2ccccc2C1=O)C(=NO)n1nc(C(C)(C)C)cc1N (stereo not drawn)
## Output 198 to 199 °C

## Input Please give the measured melting point for this compound: CCC(C)NC(=O)n1nc(Oc2c(Cl)cc(C(F)(F)F)cc2Cl)cc1C (stereo not drawn)
## Output 73 to 75 °C

Next:
## Input Please give the measured melting point for this compound: N#Cc1ccc(C(O)(Cc2ccccc2)Cc2ccccc2)cc1
## Output 153 °C

## Input Please give the measured melting point for this compound: CCCCCc1noc(-c2ccc(N3CCN(C(=O)c4ccccc4C(F)(F)F)CC3)nn2)n1
## Output 164 °C

## Input Please give the measured melting point for this compound: CN1C(=O)CCC2(C)c3ccc(Sc4cccc5ccccc45)cc3CCC12 (single isomer, unassigned; (+))
## Output 161 to 162 °C

## Input Please give the measured melting point for this compound: COC(=O)Nc1ccc(NC(=O)CN(C)C)c(N)c1
## Output 140 to 142 °C

## Input Please give the measured melting point for this compound: CC(=O)c1ccc2c(c1)C(c1ccccc1F)=NC(C)C(=O)N2 (stereo not drawn)
## Output 203 °C

## Input Please give the measured melting point for this compound: Nc1cccc(Sc2ccc3c(c2)OCC(=O)N3)c1
## Output 181 to 182 °C

## Input Please give the measured melting point for this compound: O=c1c(Cl)c(Cl)cnn1-c1cccc(COc2ccccc2)c1
## Output 92 to 94 °C

## Input Please give the measured melting point for this compound: CC1(C)OC(/C=C/c2ccc(Br)cc2)=CC1=O
## Output 109 to 110 °C

## Input Please give the measured melting point for this compound: CCOC(=O)c1cnc2c(c1O)CCCCCCCCCC2
## Output 182 to 190 °C

---

melting point by entry:

Answered cases to consult:
## Input Please give the measured melting point for this molecule: CN(c1ccnc(Cl)n1)n1cccc1
## Output 102 to 103 °C

## Input Please give the measured melting point for this molecule: O=C(NCCSc1ccccn1)Nc1cc(N2CC(c3ccccc3)OC2=O)ccn1 (stereo not given)
## Output 209 to 211 °C

## Input Please give the measured melting point for this molecule: COc1ccc(CCNC(=O)Cc2ccc(C(=O)c3ccccc3)cc2)cc1OC
## Output 113 to 114 °C

## Input Please give the measured melting point for this molecule: CC(C)(C)[C@H](NC(=O)[C@@H](CC(=O)O)n1ccc(-c2ccc(-c3ccc(C(N)=O)cc3)cc2)c1)C(=O)Nc1ccncc1
## Output 194 to 196 °C

## Input Please give the measured melting point for this molecule: CC1(C)Cc2cc(NC(N)=O)c3c(c2C(c2ccccc2)=N1)CC(C)(C)O3
## Output 151 to 153 °C

Next:
## Input Please give the measured melting point for this molecule: COc1ccc(-n2c(=O)c(CCCO)c(O)c3cccnc32)cc1
## Output 229 to 231 °C

## Input Please give the measured melting point for this molecule: CC12CCC3C(CCC4CC(CC(=O)O)CCC43C)C1CCC2CC=O (stereo not given)
## Output 189 to 192 °C

## Input Please give the measured melting point for this molecule: O=C(O)c1ccc(-c2ccc3nnn(Cc4c(F)ccc(F)c4Cl)c3n2)cc1F
## Output 211 to 213 °C

## Input Please give the measured melting point for this molecule: COc1cc(N)c2nccc(C)c2c1Oc1ccc(F)cc1
## Output 143 to 144 °C

## Input Please give the measured melting point for this molecule: c1ccc(Sc2ccc[nH]2)cc1
## Output 86 to 87 °C

## Input Please give the measured melting point for this molecule: Cc1cc(C2=NOC(c3cc(Cl)cc(Cl)c3)(C(F)(F)F)C2)ccc1C(=O)NC1(Cl)N=CC=CN1 (stereo not given)
## Output 231 to 234 °C

## Input Please give the measured melting point for this molecule: COc1ccc(C[C@@H](C(=O)O)[C@@H](O)c2ccc(F)cc2)cc1 (racemic)
## Output 96 to 98 °C

## Input Please give the measured melting point for this molecule: NC(=O)c1nc(-c2cccc(O)c2)nc2c1[nH]c(=O)n2[C@@H]1CCOC1
## Output 353 to 355 °C

## Input Please give the measured melting point for this molecule: O=C(O)c1ncsc1-c1cccc(I)c1
## Output 186 °C

## Input Please give the measured melting point for this molecule: CC(C)N1C(=O)N(c2ccc([N+](=O)[O-])c(C(F)(F)F)c2)C(=O)C1(C)C
## Output 130 °C

---

melting point by entry:

Answered cases to consult:
## Input Please give the measured melting point for this molecule: O=C(O)Cc1ccc(-c2cn3ccccc3n2)cc1
## Output 217 to 221 °C

## Input Please give the measured melting point for this molecule: Cc1cc(S(C)(=O)=O)c(S(C)(=O)=O)cc1C(=O)O
## Output 234 to 235 °C

## Input Please give the measured melting point for this molecule: CC1(C)Oc2ccc(C#N)cc2[C@@H](NC2=C(Cl)C(=O)CC2)[C@@H]1O (relative stereo)
## Output 288 to 289 °C

## Input Please give the measured melting point for this molecule: COC(=O)c1cc(C(=O)OC)cc(N(C)C)c1
## Output 118 to 121 °C

## Input Please give the measured melting point for this molecule: CCCCNC(=O)[C@@H](C[C@H](O)[C@H](CC1CCCCC1)NC(=O)OC(C)(C)C)C(C)C
## Output 115 to 118 °C

Next:
## Input Please give the measured melting point for this molecule: Cc1nc(-c2c(Cl)cc(C(F)(F)F)cc2Cl)[nH]c1S(N)(=O)=O
## Output 266 to 267 °C

## Input Please give the measured melting point for this molecule: CC(=O)OCC1OC(n2c(Cl)c(C#N)c3cc(Cl)c(Cl)cc32)C(O)C1O (stereo unspecified)
## Output 103 to 104 °C

## Input Please give the measured melting point for this molecule: CC(C)N1CN(C(=O)c2c(F)cccc2F)C(=O)N(c2ccc(Cl)cc2)C1
## Output 130 to 131 °C

## Input Please give the measured melting point for this molecule: Nc1cc(=O)[nH]c(=O)n1Cc1ccncc1
## Output 163 to 168 °C

## Input Please give the measured melting point for this molecule: COc1ccc2[nH]cc(CCCN(C3CCC3)C3COc4c(F)ccc(C(N)=O)c4C3)c2c1 (stereo unspecified)
## Output 151 to 158 °C

## Input Please give the measured melting point for this molecule: CS(=O)CC(=NC1CCCCC1)c1cc2ccccc2cc1O (stereo unspecified)
## Output 132 to 136 °C

---

melting point by entry:

Answered cases to consult:
## Input Please give the measured melting point for this molecule: N=C(N)c1ccc2cc(OC(=O)CCCC3CCCCC3)ccc2c1
## Output 189 to 193 °C

## Input Please give the measured melting point for this molecule: COc1ccc(-c2cc(Nc3ccc(NS(C)(=O)=O)cc3)nc(C)n2)cc1OC
## Output 180 to 185 °C

## Input Please give the measured melting point for this molecule: O=C(Nc1ccc(-n2nc(C3CC3)cc2C2CC2)cc1)c1ccc2nc[nH]c2c1
## Output 170 to 176 °C

## Input Please give the measured melting point for this molecule: COC(=O)c1cc(Oc2ccc(F)cc2F)ncc1[N+](=O)[O-]
## Output 90.2 to 91.4 °C

## Input Please give the measured melting point for this molecule: Cc1oc2ccccc2c1C(=O)N(Cc1ccccc1)Cc1ccc2c(Br)c(OCC#N)ccc2c1
## Output 145 to 146 °C

## Input Please give the measured melting point for this molecule: CN1C(=O)Cc2cc(C(=O)[C@H]3CC[C@H]3C(=O)O)ccc21 (relative stereo)
## Output 210 to 212 °C

## Input Please give the measured melting point for this molecule: CCOC(=O)NCC(=O)c1ccc(O)cc1
## Output 137 to 140 °C

## Input Please give the measured melting point for this molecule: CCCCCN(CCC12CC3CC(CC(C3)C1)C2)C(=O)NCCCn1ccnc1
## Output 97 to 100 °C

Next:
## Input Please give the measured melting point for this molecule: Cc1c(C(=O)O)cnn1-c1ccc(I)cc1
## Output 225 °C

## Input Please give the measured melting point for this molecule: O=[N+]([O-])c1cc(CC(O)(Cn2cncn2)Cn2cncn2)ccc1Cl
## Output 136 to 137 °C

## Input Please give the measured melting point for this molecule: CN1CCN(c2cccc(Nc3ncc4ccc(-c5cn[nH]c5)n4n3)c2)CC1
## Output 195 °C

## Input Please give the measured melting point for this molecule: CCCc1c(OCCCC(=O)NCCCCc2cccnc2)ccc(C(C)=O)c1O
## Output 80 to 82 °C

## Input Please give the measured melting point for this molecule: CCCCOc1ccc(C(=O)NCCC(=O)O)cc1
## Output 144 to 146 °C

## Input Please give the measured melting point for this molecule: NS(=O)(=O)c1nc2ccc(OCC(O)CO)cc2s1 (centres undefined)
## Output 183 to 185 °C
